Reference source: PubChem BioAssay AID686921

assay info: qHTS screen for inhibitors of ELG1-dependent DNA repair in human embryonic kidney (HEK293T) cells expressing luciferase-tagged ELG1: 5FU Viability Assay for probe SAR
experimental conditions: HEK293T ELG1-luc, CellTiter-Glo viability, 16 h; series mostly up to 46.1 µM
Calls of active or inactive are those of the source. Calls follow the shape of the dose curve; as a rule, active = well fitted curve in the direction sought with a large enough effect; inconclusive = small, poorly fitted or top-dose-only effect, or another doubt; inactive = no such curve, though single readings can be large or run the other way.
readout kind: outcome

smiles input: Fc1cc(Nc2nc(-c3ccncc3)nc3ccccc23)ccc1-c1cc(F)c(F)c(F)c1
reported measurement: inactive
//
smiles input: CSc1ccccc1-c1ccc(Nc2nc(-c3ccncc3)nc3ccccc23)cc1F
reported measurement: inactive
//
smiles input: Fc1cc(Nc2nc(-c3ccncc3)nc3ccccc23)ccc1-c1ccnc(C(F)(F)F)c1
reported measurement: inactive
